Test system: PXR:RXRa (NR concentration 270 nM, RXRa partner concentration 90 nM)
Experiment: PBM binding z-score (relative to random genomic background probes); higher = stronger binding; sequences stand for … in GC…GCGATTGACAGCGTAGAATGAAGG
RESULT TYPE: PBM binding z-score

1) TCGAGTAGGTTACGGGGGCTTTCAGGGATGAAGA | 1.87
2) CCAACTAGGTCACCAGGACAGTGAAGAGGTTGGA | 1.52
3) CCTACTGGGCCAAAGGACATTGATTCCAATGCTC | -0.488

###

Form field: PBM binding z-score (one value per entry).
Tested on: THRa:RXRa (NR concentration 90 nM, RXRa partner concentration 90 nM)
Test: PBM binding z-score (relative to random genomic background probes); higher = stronger binding; sequences stand for … in GC…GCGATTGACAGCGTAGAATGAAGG
RESULT TYPE: PBM binding z-score

1. CGAACTGGGTCACCAGGACAGTGAAGAGGTTGGA | 2.91
2. CACACTAGGTCAAAGGTCAAAGTCGAGCCAACCA | 4.85
3. ATCTCTAGGTCAAAGTTCAGTGAATCCCGAGGAT | 3.76
4. CCTAGCAGGCGAGGGTCACTCAAGCATTTCGCTT | 1.79
5. ATATGTAGGTTACATCCGGGTCATTCTGGCTATG | 3.63
6. ATATTTAGGTTAGGGTCATTCAGAAAGTAGGGAA | 4.2
7. CTATGTATGTTAAGGGGGTCATTCAGTTTGAAAG | 3.91
